# self-cleavage annotations
B1: CPEB3 Ribozyme (parent)
chain: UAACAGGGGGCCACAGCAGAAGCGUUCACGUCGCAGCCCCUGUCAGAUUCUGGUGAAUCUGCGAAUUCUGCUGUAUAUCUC

variants of: B1; experiment: self-cleavage, relative activity (ratio to wild type); higher = more cleavage; in vitro, sequencing

These recorded examples may help you get a feel for the data.
variant_designation="C14A G63A" measured_result=0.93
variant_designation="U48G U49C" measured_result=0.46
variant_designation="G73A U80C" measured_result=1.36
variant_designation="G61A A65G" measured_result=0.39
variant_designation="G36C A56G" measured_result=0.21
variant_designation="G19C U78C" measured_result=0.71

query: So what does the record say about self-cleavage for A77G U78A ?
result: 1.17

query: So what does the record say about self-cleavage for A21U C27U ?
result: 0.14

query: So what does the record say about self-cleavage for G8U G22A ?
result: 0.12

query: So what does the record say about self-cleavage for A5U U48C ?
result: 0.66

query: So what does the record say about self-cleavage for C44G U76C ?
result: 0.58
